assay: Ligand binding assay by ANS displacement, THC; conditions: Table 3; 2 μM protein, 20 μM ANS, 33 μM ligand, 20° C.
quantityKind: Purification Status (binding to THC)

SEQ ID NO. 33: OVA10565.1 Lipocalin/cytosolic fatty-acid binding domain (partial), Macleaya cordata (protein, listed as Macleaya cordata) MIRYSGRWFEVASLKRGFAGSGQEDCHCTQGVYTFDSEAPAIQVDTFCVHGGPDGYITGIRGKVQCLSEEDLEKNETDLEKRVMIREKCYLRFPTLPFIPKEPYDVIATDYDNFALVSGAKDTSFIQIYSRTPNPGPEFIEKYKSYLGNYGYDPSMIKDTPQ | Binds to CBD
SEQ ID NO. 30: PSC68250.1 lipocalin-like domain (partial), Micractinium conductrix (protein, Micractinium conductrix, PSC68250.1 lipocalin-like domain (partial), Micractinium conductrix) MAYSGRWYEVASLKRGFAGEGQQDCHCTQGIYTPKEGGPEGAIKLEVDTFCVHGGPGGRLSGIQGSVSCADPLLLSYLPEFQTEMEMVEGFVAKCALRFDSLAFLPPEPYVVLRTDYTSYALVRGAKDRSFVQIYSRTPNPGAKFIAEQKAVLGQLGYPANDIVDTPQDCPEMAPQ | Binds to CBD
